# Experiment description: Average particle size (ζ-Average) and PDI by dynamic light scattering (Zetasizer Nano ZSP)
# Assay type: physicochemical
# Measurement parameters: F7siRNA-loaded LNP, 50:10:38.5:1.5, N/P ratio 6
Note to self: values exactly at 100 nm are y. So ζ-Average (nm) at or above 100 nm is y, below is n.

In: Could you tell me if the measured ζ-Average (nm) of CCCCCCCCC(CCCC)C(=O)OCCCCCCC(O)(CCCCCCOC(=O)C(CCCC)CCCCCCCC)CCCCN(CCC)CCC (stereo not shown) [CL4F 10-4] reaches 100 nm or more?
Out: n

In: Could you tell me if the measured ζ-Average (nm) of CCCCCCCCCC(CCCCC)C(=O)OCCCCCCC(O)(CCCCCCOC(=O)C(CCCCC)CCCCCCCCC)CCCCOC(=O)C1CCN(C)CC1 (stereo not shown) [CL15F 11-5] reaches 100 nm or more?
Out: y

###

# Experiment description: Average particle size (ζ-Average) and PDI by dynamic light scattering (Zetasizer Nano ZSP)
# Type: physicochemical
# Measurement parameters: F7siRNA-loaded LNP, 50:10:38.5:1.5, N/P ratio 6
ζ-Average (nm) by entry:
Response body: numeric value in nm, unit text excluded.

Examples with their reported ζ-Average (nm) follow.
Compound	ζ-Average (nm)
CCCCCCCCCC(CCCCCCC)C(=O)OCCCCCCC(O)(CCCCCCOC(=O)C(CCCCCCC)CCCCCCCCC)CCCCOC(=O)C1CCN(C)CC1 (centres unmarked) [CL15F 11-7]	102.5
CCCCCCC(CCCCC)C(=O)OCCCCCCC(O)(CCCCCCOC(=O)C(CCCCC)CCCCCC)CCCCN(CCC)CCC (centres unmarked)	103.40
CCCCCCC(CCCCCC)C(=O)OCCCCCCC(O)(CCCCCCOC(=O)C(CCCCCC)CCCCCC)CCCCOC(=O)C1CCN(C)CC1 [CL15F 8-6]	121.2
CCCCCCCCCC(CCCCCC)C(=O)OCCCCCCC(O)(CCCCCCOC(=O)C(CCCCCC)CCCCCCCCC)CCCCOC(=O)C1CCN(C)CC1 (centres unmarked) [CL15F 11-6]	101.2
CCCCCCCCC(CCCCCCC)C(=O)OCCCCCCC(O)(CCCCCCOC(=O)C(CCCCCCC)CCCCCCCC)CCCCN(CCC)CCC (centres unmarked)	89.34

In: Write down ζ-Average (nm) measured for item CCCCCCCCCC(CCCCCC)C(=O)OCCCCCCC(O)(CCCCCCOC(=O)C(CCCCCC)CCCCCCCCC)CCCCN(CCC)CCC (centres unmarked)
Out: 92.98

In: Write down ζ-Average (nm) measured for item CCCCCCCCC(CCCCC)C(=O)OCCCCCCC(O)(CCCCCCOC(=O)C(CCCCC)CCCCCCCC)CCCCN(CCC)CCC (centres unmarked)
Out: 98.70

In: Write down ζ-Average (nm) measured for item CCCCCCCCCC(CCCCCCC)C(=O)OCCCCCCC(O)(CCCCCCOC(=O)C(CCCCCCC)CCCCCCCCC)CCCCN(CCC)CCC (centres unmarked)
Out: 94.76
